System: PSN1
Experiment: Chemosensitivity, 96 h continuous exposure, MTT assay
Format: cell-based, human
Conditions: ratio of IC50, PSN1
test_readout: Relative potency (+ anion to no anion), Ratio + anion:no anion
Please give only the number in your answer, with no unit.

Measured Relative potency (+ anion to no anion), Ratio + anion:no anion of O=P([O-])([O-])[O-].[Cu+2].[Cu+2].[Cu+2].c1ccc(-c2csc(NCCN(CCNc3nc(-c4ccccn4)cs3)CCNc3nc(-c4ccccn4)cs3)n2)nc1.c1ccc(-c2csc(NCCN(CCNc3nc(-c4ccccn4)cs3)CCNc3nc(-c4ccccn4)cs3)n2)nc1 [[L2Cu3(PO4)]3+] : 2.73

GET /value?item= O=S(=O)([O-])[O-].[Cu+2].[Cu+2].[Cu+2].c1ccc(-c2csc(NCCN(CCNc3nc(-c4ccccn4)cs3)CCNc3nc(-c4ccccn4)cs3)n2)nc1.c1ccc(-c2csc(NCCN(CCNc3nc(-c4ccccn4)cs3)CCNc3nc(-c4ccccn4)cs3)n2)nc1 [[L2Cu3(SO4)]4+] &field=Relative potency (+ anion to no anion), Ratio + anion:no anion returns 0.0756

CC(=O)[O-].CC(=O)[O-].CC(=O)[O-].CC(=O)[O-].CC(=O)[O-].CC(=O)[O-].[Zn+2].[Zn+2].[Zn+2].c1ccc(-c2csc(NCCN(CCNc3nc(-c4ccccn4)cs3)CCNc3nc(-c4ccccn4)cs3)n2)nc1.c1ccc(-c2csc(NCCN(CCNc3nc(-c4ccccn4)cs3)CCNc3nc(-c4ccccn4)cs3)n2)nc1 [[L2Zn3]6+] yielded Relative potency (+ anion to no anion), Ratio + anion:no anion of 1
